# System: 422866-222-R5-J1-PDC spheroids with HUVEC/MSC, viability
# assay.overview: Anticancer human tumor 422866-222-R5-J1-PDC patient-derived pancreatic adenocarcinoma cell line growth inhibition [GQUAD]
# condition.label: second compound 0.1 µM; first compound 0.316 µM; hits give low values
observed.property: viability, T/C (%)

molecule="COc1ncnc(C2CC2)c1-c1ncc2cnn(Cc3ccc(-c4nc(C(F)(F)F)cn4C(C)C)cc3)c2n1 + Cc1cnc(CNC(=O)c2c(=O)c3ccc(N4CCCN(C)CC4)nc3n3c2sc2ccccc23)cn1" unit_info=% value=82.9
molecule="C=CC(=O)N1CCN(c2nc(=O)n(-c3c(C)ccnc3C(C)C)c3nc(-c4c(O)cccc4F)c(F)cc23)C(C)C1 (stereo not drawn) + CN(C)c1ccc(Nc2c3ccc(NC(=O)CCN4CCCC4)cc3nc3cc(NC(=O)CCN4CCCC4)ccc23)cc1" unit_info=% value=26.6
molecule="CC1COCCN1c1cc(C2(S(C)(=N)=O)CC2)nc(-c2ccnc3[nH]ccc23)n1 (stereo not drawn) + Cc1[nH]c2ccc(F)cc2c1-c1nc2c3cccnc3c3ncccc3c2[nH]1" unit_info=% value=92.3

----------
The following molecules are listed with their measured viability, T/C values.
# Tested on: 422866-222-R5-J1-PDC spheroids with HUVEC/MSC, viability
# assay.overview: Anticancer human tumor 422866-222-R5-J1-PDC cell line growth inhibition [GQUAD];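 also: spheroids exposed to compounds for seven days before reading; percent viability relative to DMSO vehicle control taken as 100%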
# condition.label: second compound 0.316 µM; first compound 0.00316 µM; hits give low values
observed.property: viability, T/C

molecule="Cn1ncnc1[C@H]1c2n[nH]c(=O)c3cc(F)cc(c23)N[C@@H]1c1ccc(F)cc1 + Cc1cnc(CNC(=O)c2c(=O)c3ccc(N4CCCN(C)CC4)nc3n3c2sc2ccccc23)cn1" observed_property="viability, T/C" value=78.6%
molecule="Cn1ncnc1[C@H]1c2n[nH]c(=O)c3cc(F)cc(c23)N[C@@H]1c1ccc(F)cc1 + Cc1[nH]c2ccc(F)cc2c1-c1nc2c3cccnc3c3ncccc3c2[nH]1" observed_property="viability, T/C" value=114%
molecule="CCc1c2c(nc3ccc(O)cc13)-c1cc3c(c(=O)n1C2)COC(=O)[C@]3(O)CC + Cc1cnc(CNC(=O)c2c(=O)c3ccc(N4CCCN(C)CC4)nc3n3c2sc2ccccc23)cn1" observed_property="viability, T/C" value=63.1%

----------
Reported viability, T/C values are given for each entry in this list.
# System: 422866-222-R5-J1-PDC spheroids with HUVEC/MSC, viability
# assay.overview: Anticancer human tumor 422866-222-R5-J1-PDC cell line growth inhibition [GQUAD];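 also: spheroids exposed to compounds for seven days before reading; percent viability relative to DMSO vehicle control taken as 100%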
# condition.label: second compound 0.316 µM; first compound 0.00316 µM; hits give low values
observed.property: viability, T/C (%)

compound="Cc1[nH]c2ccccc2c1CCNCc1ccc(/C=C/C(=O)NO)cc1 + CN(C)c1ccc(Nc2c3ccc(NC(=O)CCN4CCCC4)cc3nc3cc(NC(=O)CCN4CCCC4)ccc23)cc1" system_tested="422866-222-R5-J1-PDC spheroids with HUVEC/MSC, viability" value=102
compound="CC[C@@]1(O)C(=O)OCc2c1cc1n(c2=O)Cc2cc3c(CN(C)C)c(O)ccc3nc2-1 + CN(C)c1ccc(Nc2c3ccc(NC(=O)CCN4CCCC4)cc3nc3cc(NC(=O)CCN4CCCC4)ccc23)cc1" system_tested="422866-222-R5-J1-PDC spheroids with HUVEC/MSC, viability" value=78.6
compound="CCc1c2c(nc3ccc(O)cc13)-c1cc3c(c(=O)n1C2)COC(=O)[C@]3(O)CC + CN(C)c1ccc(Nc2c3ccc(NC(=O)CCN4CCCC4)cc3nc3cc(NC(=O)CCN4CCCC4)ccc23)cc1" system_tested="422866-222-R5-J1-PDC spheroids with HUVEC/MSC, viability" value=47.2

FYI, the data here is from PubChem BioAssay AID2060511.
